# IC50 per record follows
- Target Or System: T1, Human PD-L1 expressed on cells (human, UniProt Q9NZQ7 19-290)
- T1 construct: One entry used for transfected and natively expressing cells; also called CHO-S hPD-L1; CHO human PD-L1
- T1 sequence (Q9NZQ7 19-290 limits assumed): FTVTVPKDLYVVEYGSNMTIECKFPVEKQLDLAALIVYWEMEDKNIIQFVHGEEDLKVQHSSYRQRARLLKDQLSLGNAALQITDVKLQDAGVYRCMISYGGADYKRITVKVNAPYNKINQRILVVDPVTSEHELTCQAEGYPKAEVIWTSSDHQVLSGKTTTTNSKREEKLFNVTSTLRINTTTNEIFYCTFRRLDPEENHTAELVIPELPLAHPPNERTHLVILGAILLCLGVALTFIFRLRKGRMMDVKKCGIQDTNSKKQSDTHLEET
- Test Summary: flow cytometry on CHO hPD-L1 cells, competitor biotin-CD80-Fc, n = 2
- Method: 150 μL FACS buffer is added and cells washed as described above. […] Cells are incubated at 4° C. for 60 minutes. Cells are washed twice with 150 μL FACS buffer, centrifuging at 300 g for 3 minutes after each wash step and aspirating supernatant. Cells are fixed, washed and resuspended for analysis as above. APC signal intensity (geometric mean) is measured by flow cytometry using a Beckman Coulter CYTOFLEX instrument. Data is plotted as percentage of receptor binding. […]
Report the value in nM with no unit label.

// returns reported IC50 for input 416E01 (human IgG1) (antibody, V domains shown) VH: EVQLAESGGGLVQPGGSLRLSCAASGFTFSNYAMSWVRQTPGKGLEWVSAISFSGGTTYYADSVKGRFTISRDNSKNTLYLHMNSLRADDTAVYYCAKDEAPAGATFFDSWGQGTLVTVSS VL: DIQMTQSPSSVSASVGDRVTITCRASQGIRRWLAWYQQKPGKAPKLLISGASSLQSGVPSRFSGSGSGTDFTLIITSLQPEDFATYYCQQANSFPITFGQGTRLEIKR 0.89

Query 84G09 (human IgG1) (antibody, V domains shown, also called clone 84609; lead antibody) VH: EVQLVESGGGLVQPGRSLRLSCAASGFTFDDYAMHWVRQTPGKGLEWVSGISWKSNIIGYADSVKGRFTISRDNAKNSLYLQMNSLRAEDTALYYCARDITGSGSYGWFDPWGQGTLVTVSS VL: DIQMTQSPSSLSASVGDRVTITCRASQSISSYLNWYQQKPGKAPKPLIYVASSLQSGVPSSFSGSGSGTDFTLTISSLQPEDFATYYCQQSYSNPITFGQGTRLEIKR next 1.41

Query 413G05 (antibody, human IgG1, kappa, V domains shown) VH: QVQLVESGGGLVKPGGSLRLSCAASGFTFSDYYMSWIRQVPGKGLEWVSYISTSGSTIYYADSVKGRFTISRDNAKNSLYLQMNSLRAEDAAVYHCARGITGTNFYHYGLGVWGQGTTVTVSS VL: DIQMTQSPSSVSASVGDRVTITCRASQGINSWLAWYQQKPGKAPKLLIYAASTLQSGVPSRFSGSGSGADFTLTISSLQPEDFATYYCQQVNSFPLTFGGGTKVEIKR next 1.17

Query 414B06 (antibody, V domains shown, also called 414606) VH: EVHLVESGGGLVQPGGSLRLSCAASGFTFSSYWMNWVRQAPGKGLEWVANIKQDGSEKYYVDSVKGRFTVSRDNAKNSLYLQMNSLRAEDTAVYYCARVRQWSDYSDYWGQGTPVTVSS VL: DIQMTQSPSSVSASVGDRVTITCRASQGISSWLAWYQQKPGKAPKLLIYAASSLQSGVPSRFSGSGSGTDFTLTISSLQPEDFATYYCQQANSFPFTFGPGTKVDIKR next 1.22
